Give melting point for every item shown.

Q: Need melting point of O=C1C=C(Nc2ccc(F)cc2)C(=O)C=C1Nc1ccc(F)cc1 , thanks.
Ans: > 350 °C

Q: Would you mind doing O=C1C=C(Nc2cccc(C(F)(F)F)c2)C(=O)C=C1Nc1cccc(C(F)(F)F)c1 as well?
Ans: 280 to 282.5 °C

Q: Would you mind doing O=C1C=C(NCCN2CCCC2)C(=O)C=C1NCCN1CCCC1 as well?
Ans: 159 to 162 °C

Q: Would you mind doing O=C1C=C(NCc2ccc(F)cc2)C(=O)C=C1NCc1ccc(F)cc1 as well?
Ans: 248 to 250 °C

Q: Would you mind doing O=C1C=C(Nc2cc(F)c(F)c(F)c2)C(=O)C=C1Nc1cc(F)c(F)c(F)c1 as well?
Ans: > 350 °C

Q: Would you mind doing O=C1C=C(NCc2ccccc2)C(=O)C=C1NCc1ccccc1 as well?
Ans: 254.5 to 256 °C

Q: Would you mind doing COc1ccc(CNC2=CC(=O)C(NCc3ccc(OC)c(OC)c3)=CC2=O)cc1OC as well?
Ans: 256.5 to 258.5 °C

Q: Would you mind doing O=C1C=C(NCc2cc(C(F)(F)F)cc(C(F)(F)F)c2)C(=O)C=C1NCc1cc(C(F)(F)F)cc(C(F)(F)F)c1 as well?
Ans: 237 to 239 °C

Q: Would you mind doing O=C1C=C(NCCN2CCOCC2)C(=O)C=C1NCCN1CCOCC1 as well?
Ans: 184 to 188 °C
